System: MDA-MB-435
Assay: NCI tumour cell line growth inhibition, 48 h
READOUT_KIND: TGI

# example entries with known answers
MOLECULE	ASSAY_RESULT
OCc1ccc(-c2nc(-c3ccc4c(c3)OCO4)c(-c3ccccn3)[nH]2)cc1	> 25 µM
O=C1OC2(c3ccc(O)cc3Oc3cc(O)ccc32)c2cccc3cccc1c23	38 µM

// switching to the query molecule
Please give the measured TGI for this molecule: CC(C(=O)NCNC(=O)c1ccccc1)C(=O)Nc1ccccc1 (stereo not drawn) > 100 µM

----------
Test system: SF-295 CNS
Assay: NCI tumour cell line growth inhibition, 48 h; in the data active means GI50 below about 0.43 µM; inactive means the rest
Field 'call' accepts y (active), n (inactive)

Answered cases to consult:
COMPOUND	CLASS
Clc1cc(Br)ccc1-c1ccc(CNCC2CCNCC2)o1	n
CCCCCCCCCCCCCCCCn1cc[n+](C)c1	y
Cc1cccc2c(=O)c3c(sc12)c(NCCCNCCO)nc1ccccc13	n

Entry `COc1cc2c3c(n(CCCN=[N+]=[N-])c(=O)c2cc1OC)-c1ccc(F)cc1C3=O` : call = ? n

I'd appreciate the recorded outcome for `CCOC(=O)c1ccc(N2NC(=O)/C(=C/c3ccc([N+](=O)[O-])o3)C2=O)cc1` from this test. n

Hi, do you know how `N#Cc1c(N)nc2c(c1-c1ccc(Cl)cc1)COc1ccc(F)cc1-2` came out in this test? n

Any idea what this test logged for COc1cccc2c1C(=O)c1c(O)c3c(c(O)c1C2=O)C[C@](O)(C(=O)CO)C[C@H]3O[C@@H]1C[C@@H](NC(=O)CCCN(C)C2(c3ccc(F)cc3)CC3CCC2C3)[C@H](O)[C@@H](C)O1 (stereo partly drawn) ? n

So what was the verdict on `CCN1/C(=C/C(C)=C/c2sc3ccc4ccccc4c3[n+]2CC)Sc2ccc3ccccc3c21` in this test? y

# fetch the recorded call for `COc1ccc(C)c2sc(N(Cc3cccnc3)C(=O)c3ccc(C#N)cc3)nc12` here n

Please state the recorded outcome for this compound: CC[C@@]1(O)CC(OC2CC(N3CCOCC3)C(O)C(C)O2)c2c(O)c3c(c(O)c2[C@H]1O)C(=O)c1cccc(O)c1C3=O (stereo partly drawn) y

# lookup: test call for `Cc1ccc(-c2cc(C(=O)Nc3ccc(S(=O)(=O)N4CCCCC4)cc3)[nH]n2)c(O)c1` n

Record lookup: outcome of this test for `COc1cc2c(/C=C3\C(=O)N(C)c4ccccc43)c[nH]c2cc1C` ? y

Fill in: this test's call for `CCCCCN(CCCCC)CCC[C@@H](C)[C@H]1CC[C@H]2[C@@H]3[C@H](OCCCN)C[C@@H]4C[C@H](OCCCN)CC[C@]4(C)[C@H]3C[C@H](OCCCN)[C@]12C` is ___ n
